// provenance: the supplement of paper PMC8728848

assayed.target: Gal(b1-3)GalNAc(b1-4)Gal(b1-4)Glc
assay: glycan array binding signal (z-score within array); higher = stronger binding
measurement.conditions: glycan notation: IUPAC condensed, linker removed
The full list was thinned out, with the strongest signals kept by preference.
Mark criterion met for reported glycan array binding signal (z-score) of -0.1 or greater; mark criterion not met for anything smaller.

>>> group("CLL-1 (Homo sapiens) (protein) MWIDFFTYSSMSEEVTYADLQFQNSSEMEKIPEIGKFGEKAPPAPSHVWRPAALFLTLLCLLLLIGLGVLASMFHVTLKIEMKKMNKLQNISEELQRNISLQLMSNMNISNKIRNLSTTLQTIATKLCRELYSKEQEHKCKPCPRRWIWHKDSCYFLSDDVQTWQESKMACAAQNASLLKINNKNALEFIKSQSRSYDYWLGLSPEEDSTRGMRVDNIINSSAWVIRNAPDLNNMYCGYINRLYVQYYHCTYKKRMICEKMANPVQLGSTYFREA")
"criterion not met"

Enquiry: Test whether the binder PNA (Arachis hypogaea), P02872 (protein) MKPFCVFLTFFLLLAASSKKVDSAETVSFNFNSFSEGNPAINFQGDVTVLSNGNIQLTNLNKVNSVGRVLYAMPVRIWSSATGNVASFLTSFSFEMKDIKDYDPADGIIFFIAPEDTQIPAGSIGGGTLGVSDTKGAGHFVGVEFDTYSNSEYNDPPTDHVGIDVNSVDSVKTVPWNSVSGAVVKVTVIYDSSTKTLSVAVTNDNGDITTIAQVVDLKAKLPERVKFGFSASGSLGGRQIHLIRSWSFTSTLITTTRRSIDNNEKKIMNMASA records glycan array binding signal (z-score) of -0.1 or higher.
Return: criterion met

Enquiry: And for Tectonin 2 (Laccaria bicolor) (protein) MPWKGISGSLSRISAGSVTNVWGVNAANNIYRYTGDDAKPWVQIPGALTDIGAAADGTVWGVNAAGNIYRYVWDSNHWTQIKGALKRISAGSRTNVWGVNAGGAIYRYTGDDANPWVQIPGVLSDIGAGADGTVWGVNAAGEIYRYTGDQGDPNHWVKIPGALSAISAGIKTNVWGVNSANNIYTSTGDDKNPWLGIGGSLVDIGAGTDGVVWGVNAGGGIYRWIRD ?
Return: criterion not met

Enquiry: And for AT1G15820(2) (Arabidopsis thaliana), Q9LMQ2 (protein) MAMAVSGAVLSGLGSSFLTGGKRGATALASGVGTGAQRVGRKTLIVAAAAAQPKKSWIPAVKGGGNFLDPEWLDGSLPGDFGFDPLGLGKDPAFLKWYREAELIHGRWAMAAVLGIFVGQAWSGVAWFEAGAQPDAIAPFSFGSLLGTQLLLMGWVESKRWVDFFNPDSQSVEWATPWSKTAENFANYTGDQGYPGGRFFDPLGLAGKNRDGVYEPDFEKLERLKLAEIKHSRLAMVAMLIFYFEAGQGKTPLGALGL ?
Return: criterion met

Enquiry: And for Gal 1 (Canis lupus) (protein) MACGLVASNLSLKPGQCLRVQCEVVPEAKSFVLNLGKDGDNLCLHFNPRFEAHGDVNTIVCNSKDGGAWGEELRESAFPFQPGTVTEVCISFDQADLTIKLPDGYTFKFPNRLNLEAISYLAADGDMKIKCLAFD ?
Return: criterion not met

Enquiry: And for DrGal9 (Danio rerio) (protein) MAFYQQPPYYNPRIPFSGPIQGGLQDGKSIIISGRVLPGANRFHVNLQCGSHSEANVALHFNPRYEDTDYVVNNSYLNRTWGSEERKYESPFAQGQTFTLQILVAQDKYKISTNGRHFMDYKHRIPFTQVDTVAVEGMVEVNSVAFQNPAGFIPPQAGYAPQYAVPPGCGFPAFPSAPNYTIPHKTVMNGGLHPGKNIVINGVVNPNAKSIIFNLCYRSGIAFHYNPRFDENVVVRNTNQMEKWGAEERFGGLPFHKGQPFQVTISCNPQHYNVFVNGKQEHTYKHRYTKLNDIDILEICGDLQLTSVQA ?
Return: criterion not met

Enquiry: And for VLRB.aGPA.23-GCN4-biotin (Petromyzon marinus) (protein) ACPSQCSCSGTEVNCAGKSLASVPAGIPTTTRVLYLNSNQITKLEPGVFDRLANLRELHLWGNQLVSLPPGVFDNLANLEKLWLNSNQLTSLPAGLFDRLVNLEHLGLCCMKLTELPSGAFDKLTRLKQLGLDQNQLKSIPDGAFARLPSLTHVWLHTNPWDCQCTDILYLSGWVAQHSSIVGEGWPWRHSPDSAKCSGTNTPVRAVTEASTSPSKCP ?
Return: criterion met

Enquiry: And for TbCVNHOa (Tuber borchii), Q5MK11 (protein) GSHIGPYMSYADSSRNAVLTNGGRTLRAECRNADGNWVTSELDLDTCIGNPNGFLGWGMQNFSHSSEDIKLEEGGRKLTCRPKTVDGGFRERQGIDLNRIQNVNGRLVFQ ?
Return: criterion not met

Enquiry: And for AT3G09350(27) (Arabidopsis thaliana), Q84J81 (protein) MAKDGPNWDGLLKWSLSHADGTRPTRQLSEEDRKWFMEAMQSQTVDVVKRMKEITLVMQTPEQVLVEHGVTPEDIQDLLDELQEHVESIDMANDLHSIGGLVPLLSFLKNSHANIRAKAADVVSTIVQNNPRSQELVMETNALESLLSNFTSDTDIHARTQALGAISSLIRHNKPGVTAFKLANGYAGLRDALASDSVRFQRKALNLLQYLLQEDDSDRSIATGLGFPRVMMHLASSDDAEIREAALRGLLELSREKNDGSSSIDKSDEKLRQLLEERIKGITLMSQEDLETVKEERQLVDLLWSICYNEPSSLREKGLVVLPGEDALPPDVASKLFEPPLRASAANRNATEKKDEPMKLLGP ?
Return: criterion met

Enquiry: And for pilr alpha (protein) MLYGVTQPKHLSASMGGSVEIPFSFYYPWELATAPDVRISWRRGHFHRQSFYSTRPPSIHKDYVNRLFLNWTEGQKSGFLRISNLQKQDQSVYFCRVELDTRSSGRQQWQSIEGTKLSIT ?
Return: criterion met
